- system_name: PDGFR-WT (Homo sapiens)
- Sequence (P09619 554-1106 limits assumed, change not shown): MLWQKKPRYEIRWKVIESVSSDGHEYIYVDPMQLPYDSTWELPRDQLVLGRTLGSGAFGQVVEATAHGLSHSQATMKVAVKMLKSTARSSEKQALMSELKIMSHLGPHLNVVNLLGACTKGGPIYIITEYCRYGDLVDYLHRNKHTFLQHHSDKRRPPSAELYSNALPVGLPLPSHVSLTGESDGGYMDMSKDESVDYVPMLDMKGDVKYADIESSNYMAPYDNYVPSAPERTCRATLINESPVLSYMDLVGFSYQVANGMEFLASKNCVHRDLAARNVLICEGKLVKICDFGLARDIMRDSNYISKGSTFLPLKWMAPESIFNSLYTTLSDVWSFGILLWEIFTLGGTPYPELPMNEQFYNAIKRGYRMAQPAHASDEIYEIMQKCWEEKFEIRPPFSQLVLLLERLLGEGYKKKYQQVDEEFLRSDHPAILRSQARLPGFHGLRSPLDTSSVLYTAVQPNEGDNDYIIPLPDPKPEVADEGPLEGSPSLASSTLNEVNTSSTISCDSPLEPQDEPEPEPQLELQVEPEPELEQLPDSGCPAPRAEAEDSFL
- procedure_text: PDGFRβ-dependent growth of Ba/F3 cells
- test_context: inhibition of PDGFRβ-dependent growth of Ba/F3 cells; read-out: effective concentration-50 (EC50) against PDGFR-WT
measurement_type: pEC50
One number for each entry, as −log10 of the molar value.

query_smiles=Cc1ccc(NC(=O)COc2ccc(-c3cnc4ccccn34)cc2)cc1C(F)(F)F endpoint_result=8.00

[ask] So what does the record say about pEC50 for Cc1ccc(NC(=O)COc2ccc(-c3cnc4ccccn34)cc2)cc1C ?
[reply] 8.00
